# credit: the supplement of paper PMC4466140

biological target: AgMyo5; assay: SPOT peptide array binding signal intensity (averaged, normalized) (arbitrary units (background-subtracted, floor 0; scale differs between SH3 domains)); higher = stronger binding of the SH3 domain to the peptide
QUANTITY_NAME: SPOT peptide array binding signal intensity
No unit in the answer, please; the number alone is enough.

# SPOT peptide array binding signal intensity of RVTRKRPREPKSTND = 2.5

# SPOT peptide array binding signal intensity of KKIRLIFTYPSTVGR = 2.5

# SPOT peptide array binding signal intensity of WTQRRGPLVVYAEDN = 3
